Each recorded value in this set is attributed to PubChem BioAssay AID720641.

# PROCEDURE DETAILS: Staphylococcus aureus RN4220 growth blockers – two temperatures, LtaS inhibitor project, primary screen (AID 720641)
# COND: S. aureus RN4220 growth, OD600, 20 h, 42 °C; stronger effect = lower value
Hit rate of the full screen: of about 170,000 compounds, about 900 (0.53%) were called active. Many of the other results were omitted from the sample, so actives are more common in it than they were.

{"SMILES NOTATION": "CSc1nnc(NC(=O)c2nc(S(=O)(=O)Cc3ccc(F)cc3)ncc2Cl)s1", "RESULT UNITS": "%", "relative growth": 93.7}
{"SMILES NOTATION": "NC(=O)c1oc2ccccc2c1NC(=O)Cc1ccc(Cl)cc1", "RESULT UNITS": "%", "relative growth": 89.8}
{"SMILES NOTATION": "COC(=O)/C(C#N)=C(\\NCc1ccc(Cl)cc1Cl)SC", "RESULT UNITS": "%", "relative growth": 99.2}
{"SMILES NOTATION": "Cc1cccc(OC(=O)Nc2ccccc2)c1", "RESULT UNITS": "%", "relative growth": 102}
{"SMILES NOTATION": "CCn1c(CCl)nc2cc(C(=O)O)ccc21", "RESULT UNITS": "%", "relative growth": 119}
{"SMILES NOTATION": "CCc1ccc2[nH]c(=O)c(CN(Cc3ccco3)C(=S)NCC(C)C)cc2c1", "RESULT UNITS": "%", "relative growth": 84}
